Measured pIC50, listed per entry for reference.
system_name: Kras and SOS1 (biotin-tagged human Kras loaded with GDP, His-tagged human SOS1) (Homo sapiens, UniProt P01116, G12D)
Construct: made in house; host or cells: E. coli (stated for Kras only)
Sequence (P01116 1-188 isoform P01116-2 G12D): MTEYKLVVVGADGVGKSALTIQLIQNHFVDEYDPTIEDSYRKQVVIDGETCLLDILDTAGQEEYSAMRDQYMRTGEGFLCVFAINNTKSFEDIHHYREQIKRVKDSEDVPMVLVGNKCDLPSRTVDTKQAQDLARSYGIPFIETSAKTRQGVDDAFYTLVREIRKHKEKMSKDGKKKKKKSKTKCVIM
experimental_details: Protein-protein interaction inhibition between Kras and SOS1 (KrasGl2D-SOS PPI) using AlphaScreen
Format: binding
stated_conditions: AlphaScreen; biotin-tagged human Kras loaded with GDP, His-tagged human SOS1; read-out: KRAS G12D-SOS PPI IC50
Starred links: 1 amine or outer side, 2 acyl side, 3 side chain; linkers in the order of their positions; H or OH if unused. Positions of bridges follow the written chain, without caps; N, C: chain ends. Non-standard residues stand in square brackets, D forms with d. Residues, ends and D or L forms follow the SMILES beside them. *: point of attachment. hPhe(3-Cl-4-CF3) = N[C@@H](CCc1ccc(C(F)(F)F)c(Cl)c1)C(=O)O; NEtPhe(4-Cl) = CCN[C@@H](Cc1ccc(Cl)cc1)C(=O)O; 3Oxa8azabicyclo(3.2.1)octane = C1CC2COCC1N2*; NMePhe(4-Cl) = CN[C@@H](Cc1ccc(Cl)cc1)C(=O)O; NMePhe(4-Me) = CN[C@@H](Cc1ccc(C)cc1)C(=O)O; NMePhe(2-Cl) = CN[C@@H](Cc1ccccc1Cl)C(=O)O; NMedβ3hAla = C[C@H](CC(=O)[*:2])N(C)[*:1]; X20 = O=C([C@H](Cc1ccc(Br)s1)N[*:1])[*:2]; NMeAla(cPent) = CN[C@@H](CC1CCCC1)C(=O)O; NMeGly(cPent) = CN[C@H](C(=O)O)C1CCCC1; NMeCha = CN[C@@H](CC1CCCCC1)C(=O)O; NMeChg = CN[C@H](C(=O)O)C1CCCCC1; NMeI = CC[C@H](C)[C@H](NC)C(=O)O; N(CH2CH2)2CF2 = FC1(F)CCN(*)CC1; NMeD = CN[C@@H](CC(=O)O)C(=O)O; NMeL = CN[C@@H](CC(C)C)C(=O)O; NMeNva = CCC[C@H](NC)C(=O)O; NMeV = CN[C@H](C(=O)O)C(C)C; Iva = CC[C@](C)(N)C(=O)O; NMeA = CN[C@@H](C)C(=O)O; NMeAib = CNC(C)(C)C(=O)O; Nle = CCCC[C@H](N)C(=O)O; Piperidide = C1CCN(*)CC1; Ac5c = NC1(C(=O)O)CCCC1; Aze = O=C(O)[C@@H]1CCN1; X1 = FC1(F)CN(*)CC1(F)F; Sar = CNCC(=O)O
Quick note: pIC50 means taking -log10 of the concentration in moles per liter.

Study these solved cases before continuing.
CCCC[C@@H]1NC(=O)[C@H](Cc2ccc(Br)s2)NC(=O)CN(C)C(=O)[C@H](Cc2ccc(Cl)cc2)N(C)C(=O)CN(C)C(=O)CN(C)C(=O)[C@H]([C@@H](C)CC)NC(=O)[C@H](CC(C)C)N(C)C(=O)C[C@@H](C(=O)N2CCCCC2)N(C)C(=O)[C@H](CC(C)C)NC(=O)C(C)(C)N(C)C1=O [Compound 1216] ([NMeL]I[Sar][Sar][NMePhe(4-Cl)][Sar][X20][Nle][NMeAib]L[NMeD]-Piperidide; lactam N-11)	6.92
CC[C@H](C)[C@@H]1NC(=O)[C@H](CC(C)C)N(C)C(=O)C[C@@H](C(=O)N2CCCCC2)N(C)C(=O)[C@H](C2CCCCC2)N(C)C(=O)[C@](C)(CC)NC(=O)[C@@H]2CCCN2C(=O)[C@H](CCc2ccc(C(F)(F)F)c(Cl)c2)NC(=O)CN(C)C(=O)[C@H](CC2CCCCC2)N(C)C(=O)CN(C)C(=O)CN(C)C1=O [Compound 1302] ([NMeL]I[Sar][Sar][NMeCha][Sar][hPhe(3-Cl-4-CF3)]P[Iva][NMeChg][NMeD]-Piperidide; lactam N-11)	9.12
CC[C@H](C)[C@@H]1NC(=O)[C@H](CC(C)C)N(C)C(=O)C[C@@H](C(=O)N(C)C)N(C)C(=O)[C@H](C2CCCCC2)N(C)C(=O)C2(CCCC2)NC(=O)[C@@H]2CCCN2C(=O)[C@H](CCc2ccc(C(F)(F)F)c(Cl)c2)NC(=O)CN(C)C(=O)[C@H](Cc2ccc(C)cc2)N(C)C(=O)CN(C)C(=O)CN(C)C1=O [Compound 1762] ([NMeL]I[Sar][Sar][NMePhe(4-Me)][Sar][hPhe(3-Cl-4-CF3)]P[Ac5c][NMeChg][NMeD]-NMe2; lactam N-11)	9.43
CCC[C@H]1C(=O)N[C@@H]([C@@H](C)CC)C(=O)N(C)CC(=O)N(C)CC(=O)N(C)[C@@H](CC2CCCC2)C(=O)N(C)CC(=O)N[C@@H](CCc2ccc(C(F)(F)F)c(Cl)c2)C(=O)N2CCC[C@H]2C(=O)NC2(CCCC2)C(=O)N(C)[C@@H](C2CCCCC2)C(=O)N(C)[C@H](C(=O)N2C3CCC2COC3)CC(=O)N1C [Compound 1916] ([NMeNva]I[Sar][Sar][NMeAla(cPent)][Sar][hPhe(3-Cl-4-CF3)]P[Ac5c][NMeChg][NMeD]-{3Oxa8azabicyclo(3.2.1)octane}; lactam N-11)	9.00
CC[C@H](C)[C@@H]1NC(=O)[C@H](CC(C)C)N(C)C(=O)C[C@@H](C)N(C)C(=O)[C@H](C2CCCC2)N(C)C(=O)C2(CCCC2)NC(=O)[C@H](CC(=O)N2CCC(F)(F)CC2)N(C)C(=O)[C@H](CCc2ccc(C(F)(F)F)c(Cl)c2)NC(=O)CN(C)C(=O)[C@H](CC2CCCCC2)N(C)C(=O)[C@@H]2CCN2C(=O)[C@H](C)N(C)C1=O [Compound 777] (cyclo([Ac5c][NMeGly(cPent)][NMedβ3hAla][NMeL]I[NMeA][Aze][NMeCha][Sar][hPhe(3-Cl-4-CF3)][NMeD](N(CH2CH2)2CF2)))	6.48
CC[C@H](C)[C@@H]1NC(=O)[C@H](CC(C)C)N(C)C(=O)C[C@@H](C(=O)N2C3CCC2COC3)N(C)C(=O)[C@H]([C@@H](C)CC)N(C)C(=O)C2(CCCC2)NC(=O)[C@@H]2CCCN2C(=O)[C@H](CCc2ccc(C(F)(F)F)c(Cl)c2)NC(=O)CN(C)C(=O)[C@H](CC2CCCCC2)N(C)C(=O)CN(C)C(=O)CN(C)C1=O [Compound 1938] ([NMeL]I[Sar][Sar][NMeCha][Sar][hPhe(3-Cl-4-CF3)]P[Ac5c][NMeI][NMeD]-{3Oxa8azabicyclo(3.2.1)octane}; lactam N-11)	9.12
CCCC[C@@H]1NC(=O)[C@H](CCc2ccc(C(F)(F)F)c(Cl)c2)NC(=O)CN(C)C(=O)[C@H](Cc2ccc(Cl)cc2)N(CC)C(=O)CN(C)C(=O)CN(C)C(=O)[C@H]([C@@H](C)CC)NC(=O)[C@H](CC(C)C)N(C)C(=O)C[C@@H](C(=O)N2CCCCC2)N(C)C(=O)[C@H](CC(C)C)NC(=O)C(C)(C)N(C)C1=O [Compound 895] ([NMeL]I[Sar][Sar][NEtPhe(4-Cl)][Sar][hPhe(3-Cl-4-CF3)][Nle][NMeAib]L[NMeD]-Piperidide; lactam N-11)	8.08
CC[C@H](C)[C@@H]1NC(=O)[C@H](C)N(C)C(=O)C[C@@H](C(=O)N(C)C)N(C)C(=O)[C@H]([C@@H](C)CC)N(C)C(=O)C2(CCCC2)NC(=O)[C@H](Cc2ccccc2Cl)N(C)C(=O)[C@H](CCc2ccc(C(F)(F)F)c(Cl)c2)NC(=O)CN(C)C(=O)[C@H](Cc2ccc(C)cc2)N(C)C(=O)[C@@H]2CCN2C(=O)[C@H](C)N(C)C1=O [Compound 2011] ([NMeA]I[NMeA][Aze][NMePhe(4-Me)][Sar][hPhe(3-Cl-4-CF3)][NMePhe(2-Cl)][Ac5c][NMeI][NMeD]-NMe2; lactam N-11)	7.77

Attention now turns to another entry.
Given the molecule CC[C@H](C)[C@@H]1NC(=O)[C@H](CC(C)C)N(C)C(=O)C[C@@H](C(=O)N2CC(F)(F)C(F)(F)C2)N(C)C(=O)[C@H](C(C)C)N(C)C(=O)C2(CCCC2)NC(=O)[C@@H]2CCCN2C(=O)[C@H](CCc2ccc(C(F)(F)F)c(Cl)c2)NC(=O)CN(C)C(=O)[C@H](CC2CCCCC2)N(C)C(=O)[C@@H]2CCN2C(=O)[C@H](C)N(C)C1=O [Compound 1136] ([NMeL]I[NMeA][Aze][NMeCha][Sar][hPhe(3-Cl-4-CF3)]P[Ac5c][NMeV][NMeD]-X1; lactam N-11) , what is its reported pIC50?
7.15
